# measurement target: T1, recombinant human lymphotoxin-α homotrimer (human LTα3) (human, UniProt P01374 35-205)
# T1 construct: Coated on plates in the ELISAs; also called rhLTα; lymphotoxin-α3 trimer
# T1 sequence (looked up): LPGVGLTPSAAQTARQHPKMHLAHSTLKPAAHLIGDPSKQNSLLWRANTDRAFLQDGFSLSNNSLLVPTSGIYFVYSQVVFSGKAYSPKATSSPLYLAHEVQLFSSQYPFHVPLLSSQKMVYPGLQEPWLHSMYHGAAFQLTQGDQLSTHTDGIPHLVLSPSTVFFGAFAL
# assay comment: plate ELISA on coated human LTα
metric: ELISA IC50 ratio
Remember to quote the unit after the number.

1. humanized 2C8.v12 (antibody, V domains shown, Human kappa / IgG1; also called Version 12; copies: 2 + 2) VH: EVQLVESGGGLVQPGGSLRLSCAASGYTFTSYVIHWVRQAPGKGLEWVGYNNPYNDGTNYNEKFKGRFTISSDKSKNTAYLQMNSLRAEDTAVYYCSRPTMLPWFAYWGQGTLVTVSS VL: DIQMTQSPSSLSASVGDRVTITCRASQAVSSAVAWYQQKPGKAPKLLIYSASHRYTGVPSRFSGSGSGTDFTLTISSLQPEDFATYYCQQHYSTPWTFGQGTKVEIKR    1 ratio

Now consider a different binder.
Input line: Given chimeric anti-LTα antibody 2C8 (antibody, human IgG1, kappa, V domains shown, Murine variable domains on human kappa and human IgG1; also called 2C8 chimera; 2C8.chimera) VH: EVQLQQSGPELVKPGASVKLSCKASGYTFTSYVIHWVKQKPGQGLEWIGYNNPYNDGTNYNEKFKGKATLTSDKSSSTAYMELSSLTSEDSAVYYCSRPTMLPWFAYWGQGTTLTVSA VL: DIVMTQSHKFMSTSVGDRVSITCKASQAVSSAVAWYQQKPGQSPKLQIYSASHRYTGVPDRFTGSGSGTDFTFTISSVQAEDLAVYYCQQHYSTPWTFGGGTKVEIKR , state its recorded ELISA IC50 ratio.
Output line: 1 ratio
